# EXPERIMENT_NOTES: Binding affinity to human KRAS promoter G-quadruplex DNA by fluorescence titration method
pKd: −log10 of the molar value.
METRIC: pKd

[I] NCCNc1c2c(c(NCCN)c3sccc13)C(=O)c1ccccc1C2=O
[II] NCCNc1c2c(c(NCCN)c3occc13)C(=O)c1ccccc1C2=O
stdin: Thinking about recorded pKd values, which is higher, I or II ? Output the label that corresponds to your choice.
stdout: I

---

# EXPERIMENT_NOTES: Binding affinity to human KRAS utr-4 G-quadruplex RNA by fluorescence titration method
METRIC: Kd (nM)

CPD_SMILES: NCCNc1c2c(c(NCCN)c3sccc13)C(=O)c1ccccc1C2=O
METRIC: Kd
RECORDED_NUMBER: 83
--
CPD_SMILES: NCCNc1c2c(c(NCCN)c3occc13)C(=O)c1ccccc1C2=O
METRIC: Kd
RECORDED_NUMBER: 96

---

# Tested on: PANC-1
# EXPERIMENT_NOTES: Inhibition of metabolic activity in human PANC1 cells after 72 hrs by resazurin assay
# Type: functional, cell-based
# MEASUREMENT_SETUP: PANC-1, 72 h
pIC50: −log10 of the molar value.
METRIC: pIC50

[I] NCCNc1c2c(c(NCCN)c3sccc13)C(=O)c1ccccc1C2=O
[II] NCCNc1c2c(c(NCCN)c3occc13)C(=O)c1ccccc1C2=O
stdin: Thinking about recorded pIC50 values, which is higher, I or II ? Output the label that corresponds to your choice.
stdout: II
